biological target: Antigen DN-IV-Ag# (Fapon Biotech Inc.) (dengue virus); assay: indirect ELISA on coated DN-IV-Ag#, antibody diluted 9 times

binder	measurement-units	OD450 (reference 630 nm)
Mutation 3 (antibody, V domains shown) VH: EVQLQQPGPELVKPGASVKMSCKASGYTLTSTVIHWVRQKPGQGLEWIGYMNKYNDGLKYNPKFIGKAILTSDKSSSTAYMQLSSLTSEDSAVYYCTKEGLFYVMDYWGQGTSVTVSS VL: QIVLTQSPAIMSASPGEKVTMTCSVTSSISYMHWYQQKSGTSPKRWIYDTSKLASCVPVRFSGSGSGTSYSLTISSMEAEDAATYFCQQWRSQLPTFGAGTKLELKR	OD	0.062
WT (recombinant anti-dengue virus NS1 7F8 antibody of Example 2) (antibody, mouse IgG1, kappa, V domains shown) VH: EVQLQQPGPELVKPGASVKMSCKASGYTVTSYVIHWVRQKPGQGLEWIGYMNAYNDGIKYNEKFIGKAILTSDKSSSTAYMQLSSLTSEDSAVYYCTKEGLFYVMDYWGQGTSVTVSS VL: QIVLTQSPAIMSASPGEKVTMTCSATSSISYMHWYQQKSGTSPKRWIYDTSKLASPVPVRFSGSGSGTSYSLTISSMEAEDAATYFCQYWRSDLPTFGAGTKLELKR	OD	0.781
Mutation 2 (antibody, V domains shown) VH: EVQLQQPGPELVKPGASVKMSCKASGYTFTSTVIHWVRQKPGQGLEWIGYMNGYNDGLKYNNKFIGKAILTSDKSSSTAYMQLSSLTSEDSAVYYCTKEGLFYVMDYWGQGTSVTVSS VL: QIVLTQSPAIMSASPGEKVTMTCSATSSISYMHWYQQKSGTSPKRWIYDTSKLASAVPVRFSGSGSGTSYSLTISSMEAEDAATYFCQQWRSDLPTFGAGTKLELKR	OD	1.05
